Recorded EC50 for the following compounds
Target: Melanocyte-stimulating hormone receptor (Homo sapiens)
Sequence (Q01726 whole entry): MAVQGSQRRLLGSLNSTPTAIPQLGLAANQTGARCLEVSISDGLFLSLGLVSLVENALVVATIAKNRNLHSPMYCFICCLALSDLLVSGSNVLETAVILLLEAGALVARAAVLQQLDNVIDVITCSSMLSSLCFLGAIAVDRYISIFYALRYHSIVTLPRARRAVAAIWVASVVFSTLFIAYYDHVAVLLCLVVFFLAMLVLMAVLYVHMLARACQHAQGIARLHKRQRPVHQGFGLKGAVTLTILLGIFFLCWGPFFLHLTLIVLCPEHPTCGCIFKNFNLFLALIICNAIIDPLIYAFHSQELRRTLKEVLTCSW
Test: In vitro cAMP accumulation in HEK cells transfected with human Melanocortin 1 receptor (hMC1R)

- O=C(N[C@H](Cc1ccc(Cl)cc1)C(=O)N1CCN(c2ccccc2Cn2cnnc2)CC1)[C@H]1Cc2ccccc2CN1: > 3 µM

Now take the following compound into account.
In: API: value(readout= EC50, system= Melanocyte-stimulating hormone receptor (Homo sapiens), query= O=C(N[C@H](Cc1ccc(Cl)cc1)C(=O)N1CCN(c2ccccc2Cn2cncn2)CC1)[C@H]1Cc2ccccc2CN1 )
Out: > 3 µM

---

Molecular target: Melanocortin receptor 3 (Homo sapiens, UniProt P41968)
Sequence (P41968 whole entry): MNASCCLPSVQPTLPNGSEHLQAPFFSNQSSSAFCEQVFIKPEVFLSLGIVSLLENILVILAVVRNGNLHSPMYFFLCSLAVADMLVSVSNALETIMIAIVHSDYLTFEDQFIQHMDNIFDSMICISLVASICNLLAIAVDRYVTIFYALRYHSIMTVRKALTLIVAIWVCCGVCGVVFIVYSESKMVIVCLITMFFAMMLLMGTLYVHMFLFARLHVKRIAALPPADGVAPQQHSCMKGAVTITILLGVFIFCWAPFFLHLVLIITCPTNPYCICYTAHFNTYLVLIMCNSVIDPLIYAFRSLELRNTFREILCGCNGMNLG
Experiment: In vitro cAMP accumulation in HEK cells transfected with human Melanocortin 3 receptor (hMC3R)
As shown below, each of these compounds has a reported EC50 value.

• O=C(N[C@H](Cc1ccc(Cl)cc1)C(=O)N1CCN(c2ccccc2Cn2cncn2)CC1)[C@H]1Cc2ccccc2CN1 = > 3 µM

Could you now look at the following compound, please?
In: Reported EC50, compound O=C(N[C@H](Cc1ccc(Cl)cc1)C(=O)N1CCN(c2ccccc2Cn2cnnc2)CC1)[C@H]1Cc2ccccc2CN1 : ____
Out: > 3 µM
